Parameter inhibition: see the listing below.
# SYSTEM: Solute carrier family 2, facilitated glucose transporter member 1 (Homo sapiens)
# PROCEDURE DETAILS: ST_JUDE_LEISH: Cytotoxicity at 2uM final concentration against transgenic Leishmania Mexicana promastigotes LmGLUT1 that are glucose transport deficient and complemented with the human glucose transporter GLUT1. Activity is measured by DNA content using SYBR green in vitro
# Type: functional
Numeric only. Scale: %

Previously resolved entries follow.
O=C(/C=C/c1ccc(Cl)c(Cl)c1)NCCCCCN1CCC(CCNC(=O)/C=C/c2ccc(Cl)c(Cl)c2)CC1 | 1.63
O=C(Nc1ccc(-c2ccc(-c3nc4cc(C(F)(F)F)ccc4[nH]3)cc2)cc1)Nc1ccc(F)c(F)c1F | -0.4
CC1(C)N=C(N)N=C(N)C1c1ccc(Cl)cc1 (stereo not given) | 4.19
Nc1nc(N)c2c(ccc3c2ccn3C2C=CCCC2)n1 (stereo not given) | 56.1
Clc1ccc(CNc2ccnc(NCc3ccc4c(c3)OCCCO4)n2)c(Cl)c1 | 4.44
O=C(Cc1c[nH]cn1)Nc1cccc(-c2ccc(-c3nc4cc(C(F)(F)F)ccc4[nH]3)s2)c1 | -5.22
CC(=O)Nc1cc(C(=O)Nc2cccc(-c3csc(-c4nc5ccccc5[nH]4)c3)c2)ccc1C | 10.5
COCCN(C)c1ccc(C(=O)Nc2ccccc2)cc1NS(=O)(=O)Cc1ccccc1 | 10.2

Exercise: I would be grateful if you could share the reported inhibition for Cc1cccc2nc(-c3ccc(-c4cccc(CNCCCNS(C)(=O)=O)c4)s3)[nH]c12 .
Solution: 0.75

Exercise: # lookup: inhibition of SC(=Nc1ccc2c(c1)OCCO2)NN=Cc1ccccn1
Solution: -0.28
